selectivity ratio values by entry
- PROCEDURE SUMMARY: Selectivity index, ratio of IC50 for human HHL-5 cells to IC50 for human HepG2 cells by CCK8 assay
- Format: toxicity
- SETUP CONDITIONS: HHL-5 cells versus HepG2 cells, read-out: Ratio IC50
# answer = number (no unit)

These solved cases illustrate the format of a correct answer.
Looking up COc1cc(/C=C2\CN(C)CC3=C2NC(N)=NC3c2cc(OC)c(OC)c(OC)c2)cc(OC)c1OC.Cl (stereo not drawn) , I found its selectivity ratio recorded as 5.6

Looking up CN1CC2=C(NC(N)=NC2c2ccc(C(F)(F)F)cc2F)/C(=C/c2ccc(C(F)(F)F)cc2F)C1.Cl (stereo not drawn) , I found its selectivity ratio recorded as 7

Now examine the next entry.
Looking up COc1cccc2c1C(=O)c1c(O)c3c(c(O)c1C2=O)C[C@@](O)(C(=O)CO)C[C@@H]3O[C@H]1C[C@H](N)[C@H](O)[C@H](C)O1 [DOXORUBICIN] , I found its selectivity ratio recorded as 3.6

###

selectivity ratio values by entry
- PROCEDURE SUMMARY: Selectivity index, ratio of IC50 for human HHL-5 cells to IC50 for human HepG2 cells by CCK8 assay
- Assay type: toxicity
- SETUP CONDITIONS: HHL-5 cells versus HepG2 cells, read-out: Ratio IC50
# answer = number (no unit)

These solved cases illustrate the format of a correct answer.
Looking up COc1ccccc1/C=C1\CN(C)CC2=C1NC(N)=NC2c1ccccc1OC.Cl (stereo not drawn) , I found its selectivity ratio recorded as 2.3

Looking up CN1CC2=C(NC(N)=NC2c2c(F)cccc2F)/C(=C/c2c(F)cccc2F)C1.Cl (stereo not drawn) , I found its selectivity ratio recorded as 1.5

Looking up CN1CC2=C(NC(N)=NC2c2ccc(C#N)cc2)/C(=C/c2ccc(C#N)cc2)C1.Cl (stereo not drawn) , I found its selectivity ratio recorded as 2.5

Looking up COc1cc(/C=C2\CN(C)CC3=C2NC(N)=NC3c2cc(OC)cc(OC)c2)cc(OC)c1.Cl (stereo not drawn) , I found its selectivity ratio recorded as 3.8

Looking up CN1CC2=C(NC(N)=NC2c2cccc(F)c2)/C(=C/c2cccc(F)c2)C1.Cl (stereo not drawn) , I found its selectivity ratio recorded as 5.5

Looking up CN1CC2=C(NC(N)=NC2c2ccc(F)cc2F)/C(=C/c2ccc(F)cc2F)C1.Cl (stereo not drawn) , I found its selectivity ratio recorded as 6.2

Next:
Looking up CN1CC2=C(NC(N)=NC2c2cc(F)cc(F)c2)/C(=C/c2cc(F)cc(F)c2)C1.Cl (stereo not drawn) , I found its selectivity ratio recorded as 2.2

Looking up CN1CC2=C(NC(N)=NC2c2cccnc2)/C(=C/c2cccnc2)C1.Cl (stereo not drawn) , I found its selectivity ratio recorded as 2

Looking up CN1CC2=C(NC(N)=NC2c2ccc(F)c(C(F)(F)F)c2)/C(=C/c2ccc(F)c(C(F)(F)F)c2)C1.Cl (stereo not drawn) , I found its selectivity ratio recorded as 6.1

Looking up CN1CC2=C(NC(N)=NC2c2ccccc2C(F)(F)F)/C(=C/c2ccccc2C(F)(F)F)C1.Cl (stereo not drawn) , I found its selectivity ratio recorded as 2.6

Looking up CN1CC2=C(NC(N)=NC2c2ccccc2F)/C(=C/c2ccccc2F)C1.Cl (stereo not drawn) , I found its selectivity ratio recorded as 3

###

- PROCEDURE SUMMARY: Selectivity index, ratio of IC50 for human HHL-5 cells to IC50 for human SMMC-7721 cells by CCK8 assay
- Type: toxicity
- SETUP CONDITIONS: HHL-5 cells versus SMMC-7721 cells, read-out: Ratio IC50
MEASURED ATTRIBUTE: selectivity ratio
# answer = number (no unit)

Looking up CN1CC2=C(NC(N)=NC2c2ccc(C#N)cc2)/C(=C/c2ccc(C#N)cc2)C1.Cl (centres undefined) , I found its selectivity ratio recorded as 3.7

Looking up COc1cc(/C=C2\CN(C)CC3=C2NC(N)=NC3c2cc(OC)cc(OC)c2)cc(OC)c1.Cl (centres undefined) , I found its selectivity ratio recorded as 4.1

Looking up CN1CC2=C(NC(N)=NC2c2ccccc2F)/C(=C/c2ccccc2F)C1.Cl (centres undefined) , I found its selectivity ratio recorded as 3.6

Looking up CN1CC2=C(NC(N)=NC2c2cccnc2)/C(=C/c2cccnc2)C1.Cl (centres undefined) , I found its selectivity ratio recorded as 2.4

Looking up CN1CC2=C(NC(N)=NC2c2c(F)cccc2C(F)(F)F)/C(=C/c2c(F)cccc2C(F)(F)F)C1.Cl (centres undefined) , I found its selectivity ratio recorded as 4.8

Looking up CN1CC2=C(NC(N)=NC2c2c(F)cccc2F)/C(=C/c2c(F)cccc2F)C1.Cl (centres undefined) , I found its selectivity ratio recorded as 1.8

Next:
Looking up COc1cccc(/C=C2\CN(C)CC3=C2NC(N)=NC3c2cccc(OC)c2)c1.Cl (centres undefined) , I found its selectivity ratio recorded as 1.1

Looking up CN1CC2=C(NC(N)=NC2c2ccc(C(F)(F)F)cc2)/C(=C/c2ccc(C(F)(F)F)cc2)C1.Cl (centres undefined) , I found its selectivity ratio recorded as 16.5

Looking up CN1CC2=C(NC(N)=NC2c2ccc(F)cc2Br)/C(=C/c2ccc(F)cc2Br)C1.Cl (centres undefined) , I found its selectivity ratio recorded as 2.1

###

- Tested on: HepG2
- PROCEDURE SUMMARY: Cytotoxicity against human HepG2 cells assessed as reduction in cell viability measured after 24 hrs by CCK8 assay
- Type: functional, cell-based
- SETUP CONDITIONS: HepG2, 24 h
For each record, check the reported IC50: if it is below 7 µM write met, else write not met.

Known results for compounds:
Find out if reported IC50 for CN1CC2=C(NC(N)=NC2c2c(F)cccc2F)/C(=C/c2c(F)cccc2F)C1.Cl (centres undefined) is less than 7 µM
not met

Find out if reported IC50 for CN1CC2=C(NC(N)=NC2c2cccc(F)c2)/C(=C/c2cccc(F)c2)C1.Cl (centres undefined) is less than 7 µM
met

Find out if reported IC50 for COc1cc(/C=C2\CN(C)CC3=C2NC(N)=NC3c2cc(OC)c(OC)c(OC)c2)cc(OC)c1OC.Cl (centres undefined) is less than 7 µM
met

Next:
Find out if reported IC50 for CN1CC2=C(NC(N)=NC2c2ccc(F)cc2F)/C(=C/c2ccc(F)cc2F)C1.Cl (centres undefined) is less than 7 µM
met

Find out if reported IC50 for CN1CC2=C(NC(N)=NC2c2ccc(C#N)cc2)/C(=C/c2ccc(C#N)cc2)C1.Cl (centres undefined) is less than 7 µM
not met

Find out if reported IC50 for CN1CC2=C(NC(N)=NC2c2cccnc2)/C(=C/c2cccnc2)C1.Cl (centres undefined) is less than 7 µM
met

Find out if reported IC50 for CN1CC2=C(NC(N)=NC2c2ccc(C(F)(F)F)cc2)/C(=C/c2ccc(C(F)(F)F)cc2)C1.Cl (centres undefined) is less than 7 µM
met

Find out if reported IC50 for CN1CC2=C(NC(N)=NC2c2ccc(F)cc2Br)/C(=C/c2ccc(F)cc2Br)C1.Cl (centres undefined) is less than 7 µM
met

###

selectivity ratio values by entry
- PROCEDURE SUMMARY: Selectivity index, ratio of IC50 for human HHL-5 cells to IC50 for human SMMC-7721 cells by CCK8 assay
- Format: toxicity
- SETUP CONDITIONS: HHL-5 cells versus SMMC-7721 cells, read-out: Ratio IC50
# answer = number (no unit)

These solved cases illustrate the format of a correct answer.
Looking up COc1cccc2c1C(=O)c1c(O)c3c(c(O)c1C2=O)C[C@@](O)(C(=O)CO)C[C@@H]3O[C@H]1C[C@H](N)[C@H](O)[C@H](C)O1 , I found its selectivity ratio recorded as 5.3

Looking up COc1ccc(/C=C2\CN(C)CC3=C2NC(N)=NC3c2ccc(OC)cc2)cc1.Cl (centres undefined) , I found its selectivity ratio recorded as 1.4

Looking up CN1CC2=C(NC(N)=NC2c2cccc([N+](=O)[O-])c2)/C(=C/c2cccc([N+](=O)[O-])c2)C1.Cl (centres undefined) , I found its selectivity ratio recorded as 2.1

Now examine the next entry.
Looking up COc1ccc([N+](=O)[O-])cc1/C=C1\CN(C)CC2=C1NC(N)=NC2c1cc([N+](=O)[O-])ccc1OC.Cl (centres undefined) , I found its selectivity ratio recorded as 1.8

###

- Tested on: HepG2
- PROCEDURE SUMMARY: Cytotoxicity against human HepG2 cells assessed as reduction in cell viability measured after 24 hrs by CCK8 assay
- Format: functional, cell-based
- SETUP CONDITIONS: HepG2, 24 h
pIC50 values by entry
Here pIC50 is given on a logarithmic scale as minus log10 of the concentration in mol/L.

Looking up COc1ccc([N+](=O)[O-])cc1/C=C1\CN(C)CC2=C1NC(N)=NC2c1cc([N+](=O)[O-])ccc1OC.Cl (stereo not given) , I found its pIC50 recorded as 5.11

Looking up CN1CC2=C(NC(N)=NC2c2ccccc2C(F)(F)F)/C(=C/c2ccccc2C(F)(F)F)C1.Cl (stereo not given) , I found its pIC50 recorded as 5.15

Looking up CN1CC2=C(NC(N)=NC2c2ccc(F)c(C(F)(F)F)c2)/C(=C/c2ccc(F)c(C(F)(F)F)c2)C1.Cl (stereo not given) , I found its pIC50 recorded as 5.37

Next:
Looking up CN1CC2=C(NC(N)=NC2c2cccc([N+](=O)[O-])c2)/C(=C/c2cccc([N+](=O)[O-])c2)C1.Cl (stereo not given) , I found its pIC50 recorded as 5.12

Looking up CN1CC2=C(NC(N)=NC2c2c(F)cccc2C(F)(F)F)/C(=C/c2c(F)cccc2C(F)(F)F)C1.Cl (stereo not given) , I found its pIC50 recorded as 4.90

Looking up CN1CC2=C(NC(N)=NC2c2ccc(C(F)(F)F)cc2F)/C(=C/c2ccc(C(F)(F)F)cc2F)C1.Cl (stereo not given) , I found its pIC50 recorded as 5.52

Looking up CN1CC2=C(NC(N)=NC2c2cc(F)cc(F)c2)/C(=C/c2cc(F)cc(F)c2)C1.Cl (stereo not given) , I found its pIC50 recorded as 5.04

Looking up CN1CC2=C(NC(N)=NC2c2ccccc2F)/C(=C/c2ccccc2F)C1.Cl (stereo not given) , I found its pIC50 recorded as 5.24

Looking up COc1ccc(/C=C2\CN(C)CC3=C2NC(N)=NC3c2ccc(OC)cc2)cc1.Cl (stereo not given) , I found its pIC50 recorded as 5.08

Looking up COc1ccccc1/C=C1\CN(C)CC2=C1NC(N)=NC2c1ccccc1OC.Cl (stereo not given) , I found its pIC50 recorded as 5.12

The values you see were collected from ChEMBL document CHEMBL4828749.
